B1: Pre-mRNA-processing factor 40 homolog B, residues 274 to 332; numbered along this chain, Q6NWY9 (parent)
chain: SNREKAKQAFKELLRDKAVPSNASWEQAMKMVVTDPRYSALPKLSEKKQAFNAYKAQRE

# Variants of: B1
# Measurement description: abundance fitness (aPCA) (normalised: wild type 0, dead -1); higher = more abundant; growth selection in yeast, the domain comes from the species named
# Test context: Homo sapiens

[
  {
    "Mutation name": "D16V",
    "abundance fitness": -0.716
  },
  {
    "Mutation name": "S24M",
    "abundance fitness": -0.591
  },
  {
    "Mutation name": "K48T",
    "abundance fitness": -0.45
  },
  {
    "Mutation name": "K43C",
    "abundance fitness": 0.037
  },
  {
    "Mutation name": "E59Q",
    "abundance fitness": -0.033
  },
  {
    "Mutation name": "K48M",
    "abundance fitness": -0.01
  },
  {
    "Mutation name": "A23D",
    "abundance fitness": -0.522
  },
  {
    "Mutation name": "P42T",
    "abundance fitness": -0.093
  },
  {
    "Mutation name": "K7G",
    "abundance fitness": -0.319
  },
  {
    "Mutation name": "P20L",
    "abundance fitness": -0.641
  },
  {
    "Mutation name": "E4I",
    "abundance fitness": -0.025
  },
  {
    "Mutation name": "E46V",
    "abundance fitness": -0.672
  },
  {
    "Mutation name": "N22L",
    "abundance fitness": -0.446
  },
  {
    "Mutation name": "K11S",
    "abundance fitness": -0.001
  },
  {
    "Mutation name": "L44K",
    "abundance fitness": -0.289
  },
  {
    "Mutation name": "L13Q",
    "abundance fitness": -0.286
  },
  {
    "Mutation name": "P20D",
    "abundance fitness": -0.395
  },
  {
    "Mutation name": "V19W",
    "abundance fitness": -0.589
  },
  {
    "Mutation name": "E4G",
    "abundance fitness": -0.374
  },
  {
    "Mutation name": "S21K",
    "abundance fitness": 0.134
  },
  {
    "Mutation name": "A56W",
    "abundance fitness": -0.293
  },
  {
    "Mutation name": "N2E",
    "abundance fitness": -0.089
  }
]
